Reference source for all entries: patent US20190175609A1

Parameter: IC50 (read off the curve). Scope: all listed entries.
# target-or-system: Programmed Death 1 (PD-1) (UniProt Q15116 25-167, limits assumed)
# Sequence (Q15116 25-167 limits assumed): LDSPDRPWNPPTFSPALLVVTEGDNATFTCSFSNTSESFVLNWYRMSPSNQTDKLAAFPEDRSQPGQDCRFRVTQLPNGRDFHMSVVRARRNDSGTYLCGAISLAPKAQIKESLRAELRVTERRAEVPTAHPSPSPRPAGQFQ
# assay-protocol: FACS ligand blocking: mAb titrated, signal of ligand-Ig bound to PD-1; legend paragraph 46 names PD-L1-Ig and PD-L2-Ig as blocked ligands for FIG. 8A; cells not named
measured-parameter: IC50 (read off the curve)

binder="murine anti-PD-1 mAb BAP049 (antibody, V domains shown, the murine constant regions are not described; also called Mu mAb; murine mAb BAP049) VH: QVQLQQSGSELVRPGASVKLSCKASGYTFTTYWMHWVRQRPGQGLEWIGNIYPGTGGSNFDEKFKNRTSLTVDTSSTTAYMHLASLTSEDSAVYYCTRWTTGTGAYWGQGTLVTVSA VL: DIVMTQSPSSLTVTAGEKVTMSCKSSQSLLDSGNQKNFLTWYQQKPGQPPKLLIFWASTRESGVPDRFTGSGSVTDFTLTISSVQAEDLAVYYCQNDYSYPCTFGGGTKLEIK" observed_result="~0.6 µg/mL"
binder="BAP049-hum05 (antibody, human IgG4 S228P, kappa, V domains shown, Humanized mAb) VH: EVQLVQSGAEVKKPGESLRISCKGSGYTFTTYWMHWVRQATGQGLEWMGNIYPGTGGSNFDEKFKNRVTITADKSTSTAYMELSSLRSEDTAVYYCTRWTTGTGAYWGQGTTVTVSS VL: EIVLTQSPATLSLSPGERATLSCKSSQSLLDSGNQKNFLTWYQQKPGKAPKLLIYWASTRESGVPSRFSGSGSGTDFTFTISSLQPEDIATYYCQNDYSYPYTFGQGTKVEIKR" observed_result="~1 µg/mL"
binder="Chi mAb (Tyr) (antibody, human IgG4 S228P, kappa, V domains shown, also called BAP049-chi-Y; Chi (Tyr)) VH: QVQLQQSGSELVRPGASVKLSCKASGYTFTTYWMHWVRQRPGQGLEWIGNIYPGTGGSNFDEKFKNRTSLTVDTSSTTAYMHLASLTSEDSAVYYCTRWTTGTGAYWGQGTTVTVSS VL: DIVMTQSPSSLTVTAGEKVTMSCKSSQSLLDSGNQKNFLTWYQQKPGQPPKLLIFWASTRESGVPDRFTGSGSVTDFTLTISSVQAEDLAVYYCQNDYSYPYTFGQGTKVEIKR" observed_result="~0.8 µg/mL"
binder="BAP049-hum01 (antibody, human IgG4 S228P, kappa, V domains shown, Humanized mAb) VH: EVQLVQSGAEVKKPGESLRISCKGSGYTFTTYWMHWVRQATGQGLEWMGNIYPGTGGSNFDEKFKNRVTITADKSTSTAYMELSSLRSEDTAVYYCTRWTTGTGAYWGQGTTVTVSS VL: EIVLTQSPATLSLSPGERATLSCKSSQSLLDSGNQKNFLTWYQQKPGQAPRLLIYWASTRESGVPSRFSGSGSGTEFTLTISSLQPDDFATYYCQNDYSYPYTFGQGTKVEIKR" observed_result="~1 µg/mL"
